tested on: Human immunodeficiency virus 2; assay: Antiviral activity against wild type HIV2 ROD infected in human CEM cells assessed as inhibition of virus production after 7 days by Lenti-RT activity assay; type: functional, organism-based; details: Human immunodeficiency virus 2, ROD, CCRF-CEM, 168 h
pEC50: −log10 of the molar value.
Reported pEC50 values for the following compounds.

{"columns": ["Cpd Smiles", "pEC50"],
 "data": [
  ["COC(=O)N[C@H](C(=O)N[C@@H](Cc1ccccc1)[C@@H](O)CN(Cc1ccc(-c2ccccn2)cc1)NC(=O)[C@@H](NC(=O)OC)C(C)(C)C)C(C)(C)C", 7.47],
  ["CC(C)CN(C[C@@H](O)[C@H](Cc1ccccc1)NC(=O)O[C@H]1CO[C@H]2OCC[C@H]21)S(=O)(=O)c1ccc(N)cc1", 8.05],
  ["CC(C)CN(C[C@@H](O)[C@H](Cc1ccccc1)NC(=O)O[C@H]1CCOC1)S(=O)(=O)c1ccc(N)cc1", 6.07],
  ["CC(C)(C)NC(=O)[C@@H]1CN(Cc2cccnc2)CCN1C[C@@H](O)C[C@@H](Cc1ccccc1)C(=O)N[C@H]1c2ccccc2C[C@H]1O.O", 7.19],
  ["CC(C)(C)NC(=O)[C@@H]1C[C@@H]2CCCC[C@@H]2CN1C[C@@H](O)[C@H](Cc1ccccc1)NC(=O)[C@H](CC(N)=O)NC(=O)c1ccc2ccccc2n1", 8.44],
  ["CC(C)c1nc(CN(C)C(=O)N[C@H](C(=O)N[C@@H](Cc2ccccc2)C[C@H](O)[C@H](Cc2ccccc2)NC(=O)OCc2cncs2)C(C)C)cs1", 6.38],
  ["Cc1c(O)cccc1C(=O)N[C@@H](CSc1ccccc1)[C@H](O)CN1C[C@H]2CCCC[C@H]2C[C@H]1C(=O)NC(C)(C)C", 6.55],
  ["Cc1cccc(C)c1OCC(=O)N[C@@H](Cc1ccccc1)[C@@H](O)C[C@H](Cc1ccccc1)NC(=O)[C@H](C(C)C)N1CCCNC1=O", 7.46]
]}
